Data origin, for the record: the RNAGym collection of RNA variant scans (doi:10.1073/pnas.2313332121)

B1: TPR t1 (parent)
chain: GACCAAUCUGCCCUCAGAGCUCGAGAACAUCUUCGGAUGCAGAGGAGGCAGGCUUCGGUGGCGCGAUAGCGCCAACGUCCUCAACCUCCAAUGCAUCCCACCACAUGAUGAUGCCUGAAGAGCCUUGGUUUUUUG

Variants of: B1
Test method notes: polymerase ribozyme fitness, log enrichment relative to wild type (log ratio); higher = more active; in vitro selection for triplet polymerase activity
Endpoint label: polymerase ribozyme fitness (log ratio)
Returns: the value as a bare number; no unit string appended.

Worked cases, answers included:
Mutant id	Recorded value
C70A A105C G120C	-5.66
C13U C72U	-0.334
C34U G61A	-4.7

Switching to the query record.
For this variant ( G113A U134G G135U ), measured polymerase ribozyme fitness (log ratio) is -1.24
